This section presents Ki values reported for 5-hydroxytryptamine receptor 1A (Rattus norvegicus) in the literature.

Ki of CCCN(CCCCN1C(=O)CC2(CCCC2)CC1=O)[C@@H]1CCc2c(F)ccc(O)c2C1 , assay on 5-hydroxytryptamine receptor 1A (Rattus norvegicus), is < 0.0003 µM

Ki of Clc1ccc(N2CCN(Cc3cn(-c4ccc(Cl)cc4)nn3)CC2)cc1 , assay on 5-hydroxytryptamine receptor 1A (Rattus norvegicus), is > 4.44 µM

Ki of N[C@@]1(C(=O)O)C[C@H](C(=O)O)C[C@@H]1C(=O)O , assay on 5-hydroxytryptamine receptor 1A (Rattus norvegicus), is > 50 µM

---

This section presents Ki values reported for 5-hydroxytryptamine receptor 1A (Rattus norvegicus, UniProt P19327) in the literature.
Molecular target: 5-hydroxytryptamine receptor 1A (Rattus norvegicus, UniProt P19327)
Sequence (P19327 whole entry): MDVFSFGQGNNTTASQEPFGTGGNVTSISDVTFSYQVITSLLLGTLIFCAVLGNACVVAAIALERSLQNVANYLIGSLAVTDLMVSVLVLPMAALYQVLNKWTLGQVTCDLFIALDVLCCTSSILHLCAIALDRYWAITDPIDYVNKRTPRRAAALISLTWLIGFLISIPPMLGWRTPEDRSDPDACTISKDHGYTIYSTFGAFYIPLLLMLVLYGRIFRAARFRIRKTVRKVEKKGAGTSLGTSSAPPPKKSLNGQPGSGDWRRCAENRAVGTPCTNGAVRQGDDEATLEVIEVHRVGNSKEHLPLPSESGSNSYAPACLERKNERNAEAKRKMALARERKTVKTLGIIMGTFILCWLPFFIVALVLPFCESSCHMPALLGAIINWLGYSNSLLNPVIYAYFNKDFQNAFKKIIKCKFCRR
PROPERTY: Ki (nM)

CC1CC2(C)CC(=O)C1C1C(=O)N(CCCCN3CCN(c4ccccn4)CC3)C(=O)C12 (stereo not drawn) ... 202

A. Cn1c(=O)c2c(nc3nc(NCCCN4CCN(c5ccccc5)CC4)c(Br)cn32)n(C)c1=O
B. c1ccc(N2CCC(CNCC3COc4ccccc4O3)CC2)cc1 (stereo not drawn)
Qu. Hi! Which is lower in terms of Ki, the first one A or the second one B ? Label of pick, please.
Ans. A
(A: 11 nM, B: 29 nM)

---

This section presents pKi values reported for 5-hydroxytryptamine receptor 1A (Rattus norvegicus, UniProt P19327) in the literature.
pKi: −log10 of the molar value.
PROPERTY: pKi

Here's what some known entries look like.
CCCCOc1ccccc1N1CCN(CCCCN2CC(=O)N3CCCC3C2=O)CC1.Cl (stereo unspecified) ... 8.19
O=C(c1ccccc1Cl)N1CCC(CNCc2cccc(-n3cccn3)n2)CC1 ... 6.88
CCCCN1CCN(c2cccc3ccccc23)CC1 ... 8.15
CCCN(CCCCN1C(=O)c2ccccc2C1=O)C1COc2cccc(O)c2C1 (stereo unspecified) ... 7.35
O=c1c2cnc3ccccc3c2ncn1CCN1CCN(c2ccccc2Cl)CC1 ... 7.11
O=C1C2CCCCN2C(=O)N1CCCCN1CCN(c2ccc(F)cc2)CC1 (stereo unspecified) ... 7.24
O=C1CC2(CCCC2)CC(=O)N1CCCCN1CCc2ccccc2CC1 ... 7.60
O=C(CCCN1CCN(c2cccc3c2OCCO3)CC1)c1ccc(F)cc1 ... 8.87

A. Cc1ccc2c(c1)ncc1c(=O)n(CCCCN3CCN(c4ccccc4F)CC3)cnc12
B. COc1cccc2c1C1CCN(CCCN3C(=O)c4ccccc4S3(=O)=O)CC1C2 (stereo unspecified)
Qu. Hi! Which is lower in terms of pKi, the first one A or the second one B ? Label of pick, please.
Ans. A
